- Tested on: MIWI (PIWIL1) piRISC loaded with Kctd7 piRNA (30 nt);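 also: 1 nM active piRISC with 0.1 nM target library at 33 °C single turnover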
- experimentSummary: pre-steady-state target cleavage rate (min^-1); MIWI and MILI are mouse PIWI proteins and EfPiwi is from a freshwater sponge; tags in brackets are library labels; higher = faster piRNA-guided slicing of the target;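 also: 1 nM active piRISC with 0.1 nM target library at 33 °C single turnover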
- conditionContext: guide: Kctd7 piRNA 5'p-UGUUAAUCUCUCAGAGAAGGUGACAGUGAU; auxiliary factor: 500 nM mouse GTSF1
The full ranking holds about 6,600 sequences; the median of “pre-steady-state target cleavage rate” is about 0.07, and the highest 2% start at about 0.72. The full list was thinned out, with the highest values kept by preference.
quantityMeasured: pre-steady-state target cleavage rate

> print(dat)
                                biosequence                           targetundertest  reportedmeasurement
1            UAGAGACUCACCUUCUCUGAGAGAUUAUGA  MIWI (PIWIL1) piRISC loaded with Kctd7 piRNA (30 nt)               0.0764
2  UAGACUGUCACCUUCUCUGAGAGAUUAACA [g2:g27:cont:t1A]  MIWI (PIWIL1) piRISC loaded with Kctd7 piRNA (30 nt)                0.805
3            UAGUGAGUCACCUUCACUGAGAGAUUUUGA  MIWI (PIWIL1) piRISC loaded with Kctd7 piRNA (30 nt)               0.0525
